# assay.remarks: Metabolic stability in mouse liver microsomes assessed as half life
# Format: ADME, Microsome
recorded.metric: half-life (min)
Expressed in min, but write only the number.

Q. I am curious: what half-life value has been reported for "C[C@]1(CN2Cc3nc(-c4ccc(F)cc4)sc3C2)CN=C(N)O1" ?
A. 63

Q. Please report the recorded half-life for "C[C@]1(CN2CCc3nc(-c4ccc(F)cc4)ccc3C2)Cn2cc([N+](=O)[O-])nc2O1" .
A. 22

Q. Suppose we examine the molecule "C[C@]1(CN2CCc3nc(-c4ccc(F)cc4)sc3CC2)Cn2cc([N+](=O)[O-])nc2O1" ; what half-life value has been reported?
A. 7

Q. Field request: half-life | item: "C[C@]1(CN2Cc3nc(-c4ccc(F)cc4)oc3C2)Cn2cc([N+](=O)[O-])nc2O1"
A. 43

---

# assay.remarks: Volume of distribution in Beagle dog at 0.5 mg/kg, iv
# Format: ADME, organism-based, Canis lupus familiaris
# protocol.conditions: in vivo
recorded.metric: Vd (L/kg)
Give the value in L/kg but do not write L/kg after it.

Q. Give its Vd value. Item: "C[C@]1(CN2Cc3nc(-c4ccc(F)cc4)sc3C2)CN=C(N)O1"
A. 4.52

---

# assay.system: Cytochrome P450 2B6 (Homo sapiens)
# Sequence (P20813 whole entry): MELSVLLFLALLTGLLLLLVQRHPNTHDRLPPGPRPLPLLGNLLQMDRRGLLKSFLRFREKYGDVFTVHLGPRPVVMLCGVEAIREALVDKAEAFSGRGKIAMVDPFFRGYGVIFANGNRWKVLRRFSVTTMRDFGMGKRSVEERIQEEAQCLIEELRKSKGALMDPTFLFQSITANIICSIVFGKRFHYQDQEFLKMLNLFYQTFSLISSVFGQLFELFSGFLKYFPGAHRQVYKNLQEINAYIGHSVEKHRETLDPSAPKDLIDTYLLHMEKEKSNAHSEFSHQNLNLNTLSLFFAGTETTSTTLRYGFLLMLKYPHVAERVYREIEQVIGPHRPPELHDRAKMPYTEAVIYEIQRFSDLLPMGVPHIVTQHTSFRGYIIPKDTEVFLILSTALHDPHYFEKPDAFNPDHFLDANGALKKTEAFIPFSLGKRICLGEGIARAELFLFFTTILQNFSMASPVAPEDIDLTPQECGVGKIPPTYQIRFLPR
Provide the recorded IC50 for the entries that follow.

Q. Look up IC50: "C[C@]1(COc2ccc(N3CCC(Oc4ccc(OC(F)(F)F)cc4)CC3)cc2)Cn2cc([N+](=O)[O-])nc2O1"
A. > 100 µM

Q. Quick one: IC50 for "C[C@]1(CN2Cc3nc(-c4ccc(F)cc4)sc3C2)CN=C(N)O1" ?
A. > 100 µM

---

# assay.remarks: Plasma protein binding in mouse assessed as bound fraction
# Assay type: ADME, cell-free
# protocol.conditions: read-out: PPB (converted)
recorded.metric: fraction unbound
Output spec: single numeric token, no unit.

Q. Item under review: "C[C@]1(CN2Cc3nc(-c4ccc(F)cc4)sc3C2)CN=C(N)O1" . Reported fraction unbound?
A. 0.018

Q. Given the entry "C[C@]1(COc2ccc(N3CCC(Oc4ccc(OC(F)(F)F)cc4)CC3)cc2)Cn2cc([N+](=O)[O-])nc2O1" , report its measured fraction unbound.
A. 0.005
